Attribution: paper PMC12408736

System: Rap1 (Naumovozyma castellii)
Experiment: competition EMSA
Conditions: 400x competitor, labeled N1 probe; 10 mM Tris-HCl pH 7.5, 7 mM MgCl2, 8% glycerol; 10 fmol probe in 15 µl, ~0.6 µg Rap1 extract, 1.5 µg non-specific competitor (E. coli DNA, salmon sperm DNA …); scale: fold shifted probe remaining vs telomeric competitor
Reported binding signal values are given for each entry in this list.

# example entries with known answers
monomer sequence: TGTTGTTGATGGTGGTGTTGTTTTTTTGTC (double strand) [ST-2]
binding signal: 66
--
monomer sequence: AAGATTTGTATAGTCTGGGTAATGTATGTCAT (double strand) [ST-3]
binding signal: 91

I'd like to know its binding signal. The sequence in question is AAGGATAGTTGGTCTGGGTGAGGATATTCTGTT (double strand) [ST-1]
60

I'd like to know its binding signal. The sequence in question is GTGTCGTTAGGTACGGAGGGTGTTGTTTGGAATATG (double strand) [ST-4]
33
